biological target: SFRP-1 (Homo sapiens, UniProt Q8N474); assay: Cell-based assay for in vitro measurement of SFRP-1/SARP2 antagonist activity (U2OS cells co-transfected with 16x TCF-tk-Luciferase reporter, Wnt and hSFRP-1); conditions: U2OS, read-out: Fold Induction with SFRP-1, Conc 15 μM; single dose; luciferase reporter, fold induction over SFRP-1 control; cells with SFRP-1
Sequence (Q8N474 32-314): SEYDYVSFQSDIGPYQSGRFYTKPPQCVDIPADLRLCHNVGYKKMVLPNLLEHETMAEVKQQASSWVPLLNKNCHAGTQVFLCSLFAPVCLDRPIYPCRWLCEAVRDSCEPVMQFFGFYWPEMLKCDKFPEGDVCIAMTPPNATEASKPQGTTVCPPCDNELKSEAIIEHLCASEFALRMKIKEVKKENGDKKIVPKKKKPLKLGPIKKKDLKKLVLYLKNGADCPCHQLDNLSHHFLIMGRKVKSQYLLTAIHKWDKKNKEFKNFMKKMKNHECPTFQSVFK
Measured Endpoint: fold induction at 15 µM

# Item Smiles, fold induction at 15 µM
rows = [
    ("O=S(=O)(NC1CCNCC1)c1cc(S(=O)(=O)c2ccccc2)ccc1Cl", 2.7),
    ("Cc1ccc(S(=O)(=O)c2ccccc2)cc1S(=O)(=O)NC1CCN(C(=O)CN(C)C)CC1", 2.1),
    ("CC(C)c1ccc(S(=O)(=O)c2cc(Cl)cc(Cl)c2)cc1S(=O)(=O)NCCc1ccccn1", 2.3),
    ("CC(C)c1ccc(S(=O)(=O)c2ccc(N(C)CCC#N)cc2)cc1S(=O)(=O)NC1CCOCC1", 2.8),
    ("CC(C)c1ccc(S(=O)(=O)c2cn(C)cn2)cc1S(=O)(=O)NCCc1ccccn1", 2.2),
    ("CC(C)c1cc(C(C)C)c(S(=O)(=O)c2ccc(F)cc2)cc1S(=O)(=O)NC1CCOCC1", 2.7),
]

###

target: SFRP-1 (Homo sapiens); test: Cell-based assay for in vitro measurement of SFRP-1/SARP2 antagonist activity (U2OS cells co-transfected with 16x TCF-tk-Luciferase reporter, Wnt and hSFRP-1); details: U2OS, read-out: Fold Induction with SFRP-1, Conc 15 μM; with SFRP-1; fold induction over SFRP-1 control, single dose;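 further: U2OS cells co-transfected with a TCF-tk luciferase reporter, a Wnt vector, hSFRP-1 or empty vector and CMV-βgal, luciferase luminescence read in cell lysates alongside βgal activity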
Measured Endpoint: fold induction at 15 µM

# Compound, Subject Of Test, fold induction at 15 µM
rows = [
    ("Cc1ccc(S(=O)(=O)c2ccc(F)cc2)cc1S(=O)(=O)NCCN1CCCCC1 [Example 166]", "SFRP-1 (Homo sapiens)", 2),
]

P. Cc1ccc(S(=O)(=O)c2ccc(C(C)(O)Cc3ccccc3)cc2)cc1S(=O)(=O)NCCc1ccccn1 (stereo not shown) [Example 408]
Q. COC(=O)CCNS(=O)(=O)c1cc(S(=O)(=O)c2ccc(F)cc2)ccc1C [Example 160]
stdin: From the items above, decide which of P and Q has the lower fold induction at 15 µM reading. Lab note: record the label of whichever item you select.
stdout: P
(P: 1.2, Q: 2.4)

I. Cc1ccc(S(=O)(=O)c2ccc(F)cc2)cc1S(=O)(=O)NC[C@@H](C)c1ccccc1 [Example 261]
II. CC(C)c1ccc(S(=O)(=O)c2ccccc2)cc1S(=O)(=O)NCCCn1ccnc1 [Example 296]
stdin: From the items above, decide which of I and II has the lower fold induction at 15 µM reading. Lab note: record the label of whichever item you select.
stdout: I
(I: 1.4, II: 3.3)

a. Cc1ccc(S(=O)(=O)c2ccc(C#N)cc2)cc1S(=O)(=O)NCCc1ccccn1 [Example 428]
b. CCOC(=O)N1CCC(NS(=O)(=O)c2cc(S(=O)(=O)c3ccccc3)ccc2C)CC1 [Example 425]
stdin: From the items above, decide which of a and b has the lower fold induction at 15 µM reading. Lab note: record the label of whichever item you select.
stdout: a
(a: 1.3, b: 2.5)

I. Cc1ccc(S(=O)(=O)c2ccc(N3CCCC3)cc2)cc1S(=O)(=O)NCCCn1ccnc1 [Example 305]
II. Cc1ccc(S(=O)(=O)NCCCn2ccnc2)cc1S(=O)(=O)c1ccccc1 [Example 317]
III. Cc1ccc(S(=O)(=O)c2ccc(C)c(S(=O)(=O)NCCc3ccccc3F)c2)cc1 [Example 138]
stdin: hey, can you rank those compounds up there by fold induction at 15 µM? biggest number first please To answer, write out the labels according to the requested order.
stdout: III, I, II

P. Cc1ccc(S(=O)(=O)c2ccccc2)cc1S(=O)(=O)NC(=O)[C@@H](N)Cc1ccccc1 [Example 364]
Q. Cc1ccc(S(=O)(=O)c2cccc3ccccc23)cc1S(=O)(=O)NCCc1ccccn1 [Example 410]
stdin: Compare the recorded fold induction at 15 µM of P and Q ; state which is larger. Lab note: record the label of whichever item you select.
stdout: Q

# credit: patent US20060276464A1
